Biological target: T1, human TIM-3, full length, on cells (human, UniProt Q8TDQ0 22-301)
T1 construct: Also used here for native TIM-3 on PBMC in the functional rows; also called CHOK1-hTIM-3; HEK293-h TIM-3
T1 sequence: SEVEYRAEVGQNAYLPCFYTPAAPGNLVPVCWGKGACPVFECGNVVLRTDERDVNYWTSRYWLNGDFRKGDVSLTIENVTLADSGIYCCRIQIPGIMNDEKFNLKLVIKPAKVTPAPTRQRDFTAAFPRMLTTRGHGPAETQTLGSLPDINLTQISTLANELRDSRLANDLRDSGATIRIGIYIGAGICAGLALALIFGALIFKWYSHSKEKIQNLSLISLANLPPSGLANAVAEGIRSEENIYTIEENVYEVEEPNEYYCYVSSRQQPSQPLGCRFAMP
Assay: FACS, CHOK1-hTIM-3 cells; antibody 0.064 nM
measurement.kind: Mean fluorescence intensity

| binder | measurement.kind | result |
| --- | --- | --- |
| 57F4E5 (TIM-3 antibody purified from hybridoma, chimeric antibody of Example 2) (antibody, V domains shown, From hybridoma of Harbour H2L2 transgenic mice: human variable regions, rat constant regions) VH: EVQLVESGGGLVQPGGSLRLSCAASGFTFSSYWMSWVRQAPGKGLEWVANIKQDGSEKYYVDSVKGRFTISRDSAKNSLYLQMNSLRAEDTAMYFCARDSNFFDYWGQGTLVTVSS VL: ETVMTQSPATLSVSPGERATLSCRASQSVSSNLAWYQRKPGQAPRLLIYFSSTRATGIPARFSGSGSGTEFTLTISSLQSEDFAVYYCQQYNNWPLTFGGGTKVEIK | Mean fluorescence intensity | 58.1 |

Report Mean fluorescence intensity for every entry below.
1. 18D2H2 (TIM-3 antibody purified from hybridoma, chimeric antibody of Example 2) (antibody, V domains shown, From hybridoma of Harbour H2L2 transgenic mice: human variable regions, rat constant regions) VH: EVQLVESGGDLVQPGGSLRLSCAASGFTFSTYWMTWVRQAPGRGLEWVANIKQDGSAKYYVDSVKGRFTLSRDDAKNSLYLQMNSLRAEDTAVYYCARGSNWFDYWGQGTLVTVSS VL: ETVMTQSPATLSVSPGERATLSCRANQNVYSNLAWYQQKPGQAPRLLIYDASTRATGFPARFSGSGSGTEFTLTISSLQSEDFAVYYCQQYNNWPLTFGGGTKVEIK
2. 134H3G6 (TIM-3 antibody purified from hybridoma, chimeric antibody of Example 2) (antibody, V domains shown, From hybridoma of Harbour H2L2 transgenic mice: human variable regions, rat constant regions) VH: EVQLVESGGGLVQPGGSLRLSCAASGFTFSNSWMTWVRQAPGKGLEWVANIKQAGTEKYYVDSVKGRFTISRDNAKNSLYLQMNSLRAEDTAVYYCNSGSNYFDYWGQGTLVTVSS VL: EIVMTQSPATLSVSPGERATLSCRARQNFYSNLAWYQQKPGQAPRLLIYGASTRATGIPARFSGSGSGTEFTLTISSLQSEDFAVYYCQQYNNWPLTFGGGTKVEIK
3. 7A4F10 (TIM-3 antibody purified from hybridoma, chimeric antibody of Example 2) (antibody, V domains shown, From hybridoma of Harbour H2L2 transgenic mice: human variable regions, rat constant regions) VH: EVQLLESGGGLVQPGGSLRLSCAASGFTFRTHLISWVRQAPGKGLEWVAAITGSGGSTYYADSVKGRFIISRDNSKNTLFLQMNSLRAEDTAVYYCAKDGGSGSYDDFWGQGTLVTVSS VL: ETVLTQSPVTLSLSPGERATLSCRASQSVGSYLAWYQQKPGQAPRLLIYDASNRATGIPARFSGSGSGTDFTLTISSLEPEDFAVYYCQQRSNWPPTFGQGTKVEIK

# output
[6.6, 8.2, 4.3]

Values were extracted from patent US20220033501A1.
